Quick reference for MIC among some compounds
System: Cryptococcus neoformans
Assay: Antifungal activity against Cryptococcus neoformans
Format: functional
assay-readout: MIC (µg/mL)

[[record]]
compound = "OC(CN1CCN(c2ccc(OCc3ccc(F)cc3)cc2)CC1)(Cn1cncn1)c1ccccc1 (stereo unspecified)"
target_desc = "Cryptococcus neoformans"
unit_tag = "µg/mL"
reported = 0.0625

[[record]]
compound = "CN(CC(O)(Cn1cncn1)c1ccc(F)cc1F)C1CC1 (stereo unspecified)"
target_desc = "Cryptococcus neoformans"
unit_tag = "µg/mL"
reported = 0.125

[[record]]
compound = "CCCCOc1ccccc1N1CCN(CCc2nnn(C(C)C(O)(Cn3cncn3)c3ccc(F)cc3F)n2)CC1 (stereo unspecified)"
target_desc = "Cryptococcus neoformans"
unit_tag = "µg/mL"
reported = 1

[[record]]
compound = "OC(Cn1cncn1)(Cn1cncn1)c1ccc(F)cc1F"
target_desc = "Cryptococcus neoformans"
unit_tag = "µg/mL"
reported = 0.53

[[record]]
compound = "O=C(O)CCSC1=C(CO)C(=O)c2ccccc2C1=O"
target_desc = "Cryptococcus neoformans"
unit_tag = "µg/mL"
reported = 0.78

[[record]]
compound = "OC(CN1CCN(c2ccc(OCc3ccncc3)cc2)CC1)(Cn1cncn1)c1ccccc1 (stereo unspecified)"
target_desc = "Cryptococcus neoformans"
unit_tag = "µg/mL"
reported = 0.0625

[[record]]
compound = "O=C1C(CO)=C(Sc2ccccc2)C(=O)c2ccccc21"
target_desc = "Cryptococcus neoformans"
unit_tag = "µg/mL"
reported = 0.78

[[record]]
compound = "CCC(C)n1ncn(-c2ccc(N3CCN(c4ccc(OCC5COC(Cn6cncn6)(c6ccc(Cl)cc6Cl)O5)cc4)CC3)cc2)c1=O (stereo unspecified)"
target_desc = "Cryptococcus neoformans"
unit_tag = "µg/mL"
reported = 0.0625

[[record]]
compound = "N#Cc1ccc(N(CC(O)(Cn2cncn2)c2ccc(F)cc2F)C2CC2)cc1 (stereo unspecified)"
target_desc = "Cryptococcus neoformans"
unit_tag = "µg/mL"
reported = 0.125

[[record]]
compound = "C[C@@H]1[C@H](O)[C@@H](C)/C=C/C=C/C=C/C=C/C=C/C=C/C=C/[C@H](O[C@@H]2O[C@H](C)[C@@H](O)[C@H](N)[C@@H]2O)C[C@@H]2O[C@](O)(C[C@@H](O)C[C@@H](O)[C@H](O)CC[C@@H](O)C[C@@H](O)CC(=O)O[C@H]1C)C[C@H](O)[C@H]2C(=O)O"
target_desc = "Cryptococcus neoformans"
unit_tag = "µg/mL"
reported = 0.13

[[record]]
compound = "NC(=O)c1ccc(COc2ccc(N3CCN(CC(O)(Cn4cncn4)c4ccccc4)CC3)cc2)cc1 (stereo unspecified)"
target_desc = "Cryptococcus neoformans"
unit_tag = "µg/mL"
reported = 0.0625

